Values were extracted from ChEMBL document CHEMBL1151380.

experiment: Acute toxicity in sc dosed mouse; assay type: organism-based; details: in vivo

sample smiles	display unit	LD50
CC1(C)CCC[C@@]2(C)[C@H]1CC=C(C=O)[C@]2(O)C=O	mg/kg	20.4
